Molecular target: T1, His-tagged human CTLA-4 (CT4-H5229; Acro Biosystems) (human, UniProt P16410 36-161)
T1 construct: bought soluble protein; also called soluble human CTLA-4; recombinant human CTLA-4; not shown: His tag
T1 sequence (P16410 36-161 limits assumed): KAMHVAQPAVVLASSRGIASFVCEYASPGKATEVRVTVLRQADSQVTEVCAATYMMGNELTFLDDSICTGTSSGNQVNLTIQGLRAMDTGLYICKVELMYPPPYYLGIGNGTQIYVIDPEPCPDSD
Assay: SPR (Carterra)
Please respond with reported kon for every item in the list.
Report the value in M⁻¹ s⁻¹ with no unit label.

Ask: Request the reported kon associated with antibody A16 (L16H16) (antibody, V domains shown, also called aCTLA-4.5) VH: QVQLVESGGGVVQPGRSLRLSCAASGFTFSSYGIHWVRQAPGKGLEWVAVIWYDGSNKYYADSVKGRFTISRDNSKNTLYLQMNSLRAEDTAVYYCARGSLLGPFDYWGQGTLVTVSS VL: DIQMTQSPSSLSASVGDRVTITCRASQGISNYLAWYQQKPGKVPKLLIYAASTLQSGVPSRFSGSGSGTDFTLTISSLQPEDVATYYCQNYNSAPWTFGQGTKVEIK
Reply: 31000

Ask: Request the reported kon associated with antibody A11 (L11H11) (antibody, V domains shown, also called aCTLA-4.31) VH: QVQLVESGGGVVQPGRSLRLSCAASGFTFSSYGMHWVRQAPGKGLEWVAVIWYDVGNKYYIDSVKGRFTISRDNSKNTLYLQMNSLRAEDTAVYYCARDYYGSGSPRHFDYWGQGTLVTVSS VL: DIQLTQSPSFLSASVGDRVTITCRASQGISSYLAWYQQKPGKAPKLLIYAASTLQSGVPSRFSGSGSGTEFTLTISSLQPEDFATYYCQQLNSYPPTFGQGTKVEIK
Reply: 47000

Ask: Request the reported kon associated with antibody A1 (L1H1) (antibody, V domains shown, also called aCTLA-4.9; CTLA4.A1) VH: QVQLVESGGGVVQPGRSLRLSCAASGFTFSSFGMHWVRQAPGKGLEWVAVIWYDGRNKYYVDSVKGRFTISRDNSNNTLYLQMNSLRAEDTAVYYCARGEFFGEFFDYWGQGTLVTVSS VL: EIVLTQSPGTLSLSPGEGATLSCRASQSFSSNYLAWYQQKPGQAPRLLIYGASSRATGIPDRFSGSGSGTDFTLTISRLEPEDFAVYYCQQYGTSPFTFGPGTKVDIK
Reply: 210000
